# System: Staphylococcus aureus
# Procedure Summary: Antibacterial activity against Staphylococcus aureus ATCC 25923 assessed as inhibition of bacterial growth incubated for 24 hrs
# Format: functional
Item-by-item account of MIC
The answer should read as a number with its unit following.

Study these solved cases before continuing.
- Compound: "CCCCCCCCn1cc(C(=O)O)c(=O)c2cc(F)c(CC#N)cc21"
  MIC: "1 µg/mL"
- Compound: "N#CCc1cc2c(cc1F)c(=O)c(C(=O)O)cn2CCN1CCOCC1"
  MIC: "1 µg/mL"
- Compound: "N#CCc1cc2c(cc1F)c(=O)c(C(=O)O)cn2CC1CCC1"
  MIC: "0.5 µg/mL"
- Compound: "C[C@H]1COc2c(CC(=O)O)c(F)cc3c(=O)c(C(=O)O)cn1c23"
  MIC: "32 µg/mL"
- Compound: "CCn1cc(C(=O)O)c(=O)c2cc(F)c(N3CCNCC3)cc21 [NORFLOXACIN]"
  MIC: "8 µg/mL"
- Compound: "CCn1cc(C(=O)O)c(=O)c2cc(F)c(CC#N)cc21"
  MIC: "0.25 µg/mL"
- Compound: "Cc1ccc(Cn2cc(C(=O)O)c(=O)c3cc(F)c(CC#N)cc32)cc1"
  MIC: "0.25 µg/mL"
- Compound: "O=C(O)Cc1cc2c(cc1F)c(=O)c(C(=O)O)cn2C1CC1"
  MIC: "32 µg/mL"
- Compound: "N#CCc1cc2c(cc1F)c(=O)c(C(=O)O)cn2Cc1ccc(F)cc1F"
  MIC: "0.25 µg/mL"
- Compound: "N#CCc1cc2c(cc1F)c(=O)c(C(=O)O)cn2Cc1ccc(Cl)cc1Cl"
  MIC: "0.5 µg/mL"

Prompt: # lookup: MIC of N#CCc1cc2c(cc1F)c(=O)c(C(=O)O)cn2Cc1ccc(Cl)cc1
Completion: 0.5 µg/mL

Prompt: Query: MIC; subject: CCn1cc(C(=O)O)c(=O)c2cc(F)c(CC#N)c(F)c21
Completion: 16 µg/mL

Prompt: Find the recorded MIC belonging to N#CCc1cc2c(cc1F)c(=O)c(C(=O)O)cn2C1CC1 and report it.
Completion: 4 µg/mL

Prompt: If you can, please state the reported MIC value of O=C(O)Cc1cc2c(cc1F)c(=O)c(C(=O)O)cn2Cc1ccccc1 .
Completion: 16 µg/mL

Prompt: Name the recorded MIC for NC1CCN(c2c(F)cc3c(=O)c(C(=O)O)cn(C4CC4)c3c2Cl)C1 (stereo not drawn) [CLINAFLOXACIN] .
Completion: 0.5 µg/mL

Prompt: Given the compound CCCCn1cc(C(=O)O)c(=O)c2cc(F)c(CC#N)cc21 , what is its reported MIC?
Completion: 0.25 µg/mL

Prompt: // query MIC value for entry N#CCc1cc2c(cc1F)c(=O)c(C(=O)O)cn2CC(=O)N1CCCCC1
Completion: 16 µg/mL

Prompt: Request the reported MIC associated with C[C@H]1COc2c(CC#N)c(F)cc3c(=O)c(C(=O)O)cn1c23
Completion: 0.25 µg/mL

###

Form field: MIC (one value per entry).
# Test system: Escherichia coli
# Procedure Summary: Antibacterial activity against Escherichia coli clinical isolate assessed as inhibition of bacterial growth incubated for 24 hrs
# Format: functional
The figure you give is taken to be in µg/mL; do not add the unit.

These recorded examples may help you get a feel for the data.
- Compound: "N#CCc1cc2c(cc1F)c(=O)c(C(=O)O)cn2Cc1ccc(Cl)c(Cl)c1"
  Experimental Target: "Escherichia coli"
  MIC (µg/mL): 8
- Compound: "C[C@H]1COc2c(CC(=O)O)c(F)cc3c(=O)c(C(=O)O)cn1c23"
  Experimental Target: "Escherichia coli"
  MIC (µg/mL): 0.5
- Compound: "N#CCc1cc2c(cc1F)c(=O)c(C(=O)O)cn2CC1CCCC1"
  Experimental Target: "Escherichia coli"
  MIC (µg/mL): 32
- Compound: "CCn1cc(C(=O)O)c(=O)c2cc(F)c(CC#N)cc21"
  Experimental Target: "Escherichia coli"
  MIC (µg/mL): 4
- Compound: "C[C@H]1COc2c(CC#N)c(F)cc3c(=O)c(C(=O)O)cn1c23"
  Experimental Target: "Escherichia coli"
  MIC (µg/mL): 1

Prompt: Which MIC reading was recorded for the compound N#CCc1cc2c(cc1F)c(=O)c(C(=O)O)cn2Cc1ccccn1 ?
Completion: 8

Prompt: Bench note: what MIC did CC(C)=CCn1cc(C(=O)O)c(=O)c2cc(F)c(CC#N)cc21 show?
Completion: 256

Prompt: For CCn1cc(C(=O)O)c(=O)c2cc(F)c(N3CCNCC3)cc21 [NORFLOXACIN] , what is its reported MIC?
Completion: 4

Prompt: Look up MIC: O=C(O)Cc1cc2c(cc1F)c(=O)c(C(=O)O)cn2Cc1ccccc1
Completion: 64

###

# Tested on: Enterococcus faecalis
# Procedure Summary: Antibacterial activity against Enterococcus faecalis clinical isolate assessed as inhibition of bacterial growth incubated for 24 hrs
# Type: functional
Metric: MIC (µg/mL)
Output spec: scalar in µg/mL, unitless text.

Here's what some known entries look like.
- Compound: "N#CCc1cc2c(cc1F)c(=O)c(C(=O)O)cn2Cc1ccccc1Cl"
  Observed: 256
- Compound: "Cn1cc(C(=O)O)c(=O)c2cc(F)c(CC#N)cc21"
  Observed: 4
- Compound: "C#CCn1cc(C(=O)O)c(=O)c2cc(F)c(CC#N)cc21"
  Observed: 1
- Compound: "N#CCc1cc2c(cc1F)c(=O)c(C(=O)O)cn2CCN1CCOCC1"
  Observed: 16
- Compound: "C[C@H]1COc2c(CC(=O)O)c(F)cc3c(=O)c(C(=O)O)cn1c23"
  Observed: 1
- Compound: "O=C(O)Cc1cc2c(cc1F)c(=O)c(C(=O)O)cn2Cc1ccccc1Cl"
  Observed: 32

Prompt: Param item = N#CCc1cc2c(cc1F)c(=O)c(C(=O)O)cn2CC1CCCC1 ; retrieve measured MIC.
Completion: 256

Prompt: GET /values?readout=MIC&item= N#CCc1cc2c(cc1F)c(=O)c(C(=O)O)cn2CC1CCCCC1
Completion: 256

Prompt: Could you share which MIC value was measured for CCCn1cc(C(=O)O)c(=O)c2cc(F)c(CC#N)cc21 ?
Completion: 32

Prompt: May I ask what MIC has been recorded for O=C(O)Cc1cc2c(cc1F)c(=O)c(C(=O)O)cn2Cc1ccccn1 ?
Completion: 16

Prompt: Entry under review: N#CCc1cc2c(cc1F)c(=O)c(C(=O)O)cn2Cc1ccccc1 . Reported MIC?
Completion: 4

Prompt: Tell me the measured MIC of N#CCc1cc2c(cc1F)c(=O)c(C(=O)O)cn2Cc1ccc(Cl)cc1Cl , please.
Completion: 256

Prompt: Value lookup for MIC; key = N#CCc1cc2c(cc1F)c(=O)c(C(=O)O)cn2Cc1c(F)cccc1F
Completion: 2

Prompt: Report MIC for N#CCc1cc2c(cc1F)c(=O)c(C(=O)O)cn2CC(=O)N1CCCCC1 please.
Completion: 64

Prompt: Find the recorded MIC belonging to CCn1cc(C(=O)O)c(=O)c2cc(F)c(CC#N)cc21 and report it.
Completion: 32

Prompt: For the compound CCn1cc(C(=O)O)c(=O)c2cc(F)c(N3CCNCC3)cc21 [NORFLOXACIN] , what MIC is on record?
Completion: 8

Prompt: Entry N#CCc1cc2c(cc1F)c(=O)c(C(=O)O)cn2Cc1cnc(Cl)s1 has what MIC?
Completion: 16

###

log10(MIC) values, listed per item
# System: Staphylococcus aureus
# Procedure Summary: Antibacterial activity against methicillin resistant Staphylococcus aureus clinical isolate assessed as inhibition of bacterial growth incubated for 24 hrs
# Format: functional
// units: µg/mL (pre-log); metric: MIC; scale: log10

Known log10(MIC) results, listed for orientation:
- Compound: "CCn1cc(C(=O)O)c(=O)c2cc(F)c(CC#N)cc21"
  Metric: "log10(MIC)"
  Observed: 0.00
- Compound: "N#CCc1cc2c(cc1F)c(=O)c(C(=O)O)cn2CC1CCCCC1"
  Metric: "log10(MIC)"
  Observed: 2.41

Prompt: Form field: log10(MIC) recorded for N#CCc1cc2c(cc1F)c(=O)c(C(=O)O)cn2CC1CCC1 with Staphylococcus aureus (enter value)
Completion: 2.11

Prompt: State its log10(MIC) on Staphylococcus aureus: CCCCn1cc(C(=O)O)c(=O)c2cc(F)c(CC#N)cc21
Completion: -0.30

Prompt: Can you look up log10(MIC) on Staphylococcus aureus for N#CCc1cc2c(cc1F)c(=O)c(C(=O)O)cn2CC1CCCC1 ?
Completion: 2.41

Prompt: Kindly state the measured log10(MIC) obtained for N#CCc1cc2c(cc1F)c(=O)c(C(=O)O)cn2C1CC1 with Staphylococcus aureus.
Completion: -0.30

Prompt: Kindly state the measured log10(MIC) obtained for N#CCc1cc2c(cc1F)c(=O)c(C(=O)O)cn2Cc1ccc(F)cc1F with Staphylococcus aureus.
Completion: 2.41

Prompt: Hi! What's the reported log10(MIC) for N#CCc1cc2c(cc1F)c(=O)c(C(=O)O)cn2Cc1ccc(C(F)(F)F)cc1 on Staphylococcus aureus?
Completion: 1.20

Prompt: Notebook: pull reported log10(MIC) for Staphylococcus aureus, entry N#CCc1cc2c(cc1F)c(=O)c(C(=O)O)cn2Cc1ccc(Cl)cc1
Completion: 2.41

Prompt: Form entry - test system: Staphylococcus aureus; read-out: log10(MIC); compound: N#CCc1cc2c(cc1F)c(=O)c(C(=O)O)cn2Cc1ccccc1Cl
Completion: 2.41

Prompt: Please tell me: log10(MIC) of N#CCc1cc2c(cc1F)c(=O)c(C(=O)O)cn2Cc1cnc(Cl)s1 , system Staphylococcus aureus?
Completion: 0.00

Prompt: Field: log10(MIC) (Staphylococcus aureus). Entry: N#CCc1cc2c(cc1F)c(=O)c(C(=O)O)cn2CC(=O)N1CCCCC1
Completion: 0.60

Prompt: Entry C#CCn1cc(C(=O)O)c(=O)c2cc(F)c(CC#N)cc21 , system Staphylococcus aureus: what log10(MIC) was measured?
Completion: -0.30

Prompt: Enter reported log10(MIC) observed with Staphylococcus aureus for CCn1cc(C(=O)O)c(=O)c2cc(F)c(CC(=O)O)cc21
Completion: 1.81

Prompt: Give Staphylococcus aureus log10(MIC) for CCCn1cc(C(=O)O)c(=O)c2cc(F)c(CC#N)cc21
Completion: 0.00

// provenance: ChEMBL document CHEMBL5506059
